Biological target: T1, Hera_core (Thermus thermophilus, UniProt O07897 1-369)
T1 sequence: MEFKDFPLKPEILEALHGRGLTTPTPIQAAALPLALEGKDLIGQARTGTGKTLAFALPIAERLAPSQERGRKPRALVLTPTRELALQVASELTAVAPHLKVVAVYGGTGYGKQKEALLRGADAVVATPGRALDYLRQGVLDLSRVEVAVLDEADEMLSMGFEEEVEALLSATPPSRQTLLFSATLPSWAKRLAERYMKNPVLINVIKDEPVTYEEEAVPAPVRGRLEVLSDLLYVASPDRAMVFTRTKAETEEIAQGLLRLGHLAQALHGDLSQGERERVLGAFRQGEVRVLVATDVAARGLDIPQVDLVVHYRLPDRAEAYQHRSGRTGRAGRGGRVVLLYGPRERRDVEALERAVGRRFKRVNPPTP
Assay: fluorescence anisotropy; no ATP; 5 mM Mg2+; Anisotropy: 50 mM Tris/HCl pH 7.5, 150 mM NaCl, 5 mM MgCl2 (Fig 2), 25 C, 50 nM RNA; EMSA: same Tris/NaCl, 12% glycerol, 25 C; NMR: 25 mM Bis-Tris/HCl pH 6.0, 50 mM NaCl, 10% D2O, 37 C
Settings: protein: recombinant; label: 5'-fluorescein; hairpin with 5' single strand
pKd: −log10 of the molar value.
recordedEndpoint: pKd

binder	recordedEndpoint	valueObserved
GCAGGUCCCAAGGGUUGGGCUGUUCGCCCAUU (structured_RNA) [32mer]	pKd	6.00
